# assay-target: Platelet-derived growth factor receptor beta (Homo sapiens)
# procedure-summary: Inhibition of PDGFRbeta at 10 uM
Give inhibition for every item shown.
Answer with the figure and its unit, nothing else.

Documented inhibition of CCCC(=O)Oc1cccc(-c2nc(N3CCOCC3)c3cc4ncccc4n3n2)c1 : 5.1%

Documented inhibition of Oc1cccc(-c2nc(N3CCOCC3)c3cc4ncccc4n3n2)c1 : 42.4%

Documented inhibition of CCC(=O)Oc1cccc(-c2nc(N3CCOCC3)c3cc4ncccc4n3n2)c1 : 11.8%

Documented inhibition of CCCC(CCC)C(=O)Oc1cccc(-c2nc(N3CCOCC3)c3cc4ncccc4n3n2)c1 : 13.6%
